# Test system: Trichomonas vaginalis
# assay.method.text: Anti-Trichomonas activity against Trichomonas vaginalis JT assessed as reduction in parasite growth after 48 hrs by haemocytometry
# Format: functional, organism-based
measure: IC50 (µM)
// units = µM; emit number, no label

For the compound shown here, `CCCCCCCCCCCCCCCCOP(=O)([O-])OCC[N+](C)(C)C` , give the reported IC50.
20

Where these numbers come from: ChEMBL document CHEMBL4138203
